Entries annotated with measured B-score
# System: Muscarinic acetylcholine receptor M1
# test_summary: M1 muscarinic receptor agonists, primary screen, CHO-M1 cells, Fluo-4 calcium, agonist mode (AID 626)
# setup_conditions: Fluo-4 calcium fluorescence, at 10 µM, active compounds read high
Out of some 64,000 compounds screened, about 1,900 (3%) were called active. This is one part of a sample in which actives are shown more often than they occur.
Form rule: numeric answer, no unit written next to it.

The examples below pair each entry with its known result.
{"compound": "OCc1nc(CO)n(Cc2ccccc2)n1", "B-score": -0.345}
{"compound": "O=C1CC(c2ccccc2)CC(O)=C1C=NCCN1CCOCC1 (stereo unspecified)", "B-score": -1.61}
{"compound": "O=c1c2ccccc2nc(CSc2nnnn2-c2ccccc2)n1-c1ccccc1", "B-score": -1.38}

Problem: Look up B-score for this compound: O=S1(=O)CC(NCc2ccccc2)C(Nc2ccc(Cl)cc2)C1 (stereo unspecified)
Solution: -0.0591

Problem: Look up B-score for this compound: COc1ccc(N(CC(=O)NC(C)(C)C)C(=O)c2ccco2)cc1
Solution: 3.36

Problem: Look up B-score for this compound: Cn1c(=O)c2c(ncn2CC(=O)N2CCN(c3ccccc3)CC2)n(C)c1=O
Solution: 0.437

Problem: Look up B-score for this compound: COc1ccc(-c2ccc(-c3noc(-c4ccncc4)n3)c(OC)n2)cc1
Solution: -0.565

Problem: Look up B-score for this compound: COc1cc(-c2nc(-c3ccncc3)no2)cc(OC)c1OC
Solution: -0.116

Problem: Look up B-score for this compound: O=C(c1ccco1)N1CCN(CC(=O)N(C2CCCCC2)C2CCS(=O)(=O)C2)CC1 (stereo unspecified)
Solution: 1.21

Problem: Look up B-score for this compound: COC(=O)c1ccccc1NC(=O)CN(Cc1ccccc1)S(C)(=O)=O
Solution: 0.117

Problem: Look up B-score for this compound: O=C(NCCSc1ccccc1)c1ccco1
Solution: 0.47

* * *

# System: Muscarinic acetylcholine receptor M1
# test_summary: M1 muscarinic receptor agonists, primary screen, CHO-M1 cells, Fluo-4 calcium, agonist mode (AID 626)
# setup_conditions: Fluo-4 calcium fluorescence, at 10 µM, active compounds read high
Hit rate of the full screen: of about 64,000 compounds, about 1,900 (3%) were called active. Only a selection was taken, and actives are over-represented in it overall.
metric_name: B-score
Form rule: numeric answer, no unit written next to it.

The examples below pair each entry with its known result.
{"compound": "CCOC(=O)C1=C(C)NC(C)=C(C(=O)OCC)C1c1ccccn1", "subject_of_test": "Muscarinic acetylcholine receptor M1", "metric_name": "B-score", "reported_value": -0.0841}
{"compound": "COC(=O)c1ccc(CSc2ccccc2C)o1", "subject_of_test": "Muscarinic acetylcholine receptor M1", "metric_name": "B-score", "reported_value": -0.274}
{"compound": "Cn1c(C(=O)NCCCN2CCN(c3cccc(Cl)c3)CC2)cc2c(=O)n(C)c3ccccc3c21", "subject_of_test": "Muscarinic acetylcholine receptor M1", "metric_name": "B-score", "reported_value": -1.68}
{"compound": "O=C(c1cccc(C(=O)N2CCN(c3ccc(F)cc3)CC2)c1)N1CCN(c2ccc(F)cc2)CC1", "subject_of_test": "Muscarinic acetylcholine receptor M1", "metric_name": "B-score", "reported_value": 3.5}

Problem: Look up B-score for this compound: CCOc1ccc(NC(=O)CC2NCCNC2=O)cc1 (stereo not drawn)
Solution: 0.571

Problem: Look up B-score for this compound: COc1ccccc1NC(=O)CSc1nnc(Cn2nnc(-c3ccccc3)n2)n1-c1ccccc1
Solution: 2.12

Problem: Look up B-score for this compound: CCOC(=O)CSc1nc2c(sc(=S)n2CCc2ccccc2)c(=O)n1Cc1ccco1
Solution: 7.17

Problem: Look up B-score for this compound: O=C(CC1Nc2ccccc2NC1=O)Nc1ccccc1 (stereo not drawn)
Solution: 3.46

Problem: Look up B-score for this compound: CC(C)c1nc2oc3c(N4CCN(C)CC4)ncnc3c2c2c1CCC2
Solution: 0.376

The measured values listed here are drawn from PubChem BioAssay AID626.
